# Test system: Pseudomonas aeruginosa
# testDescription: Antibacterial activity against Pseudomonas aeruginosa 1956 by twofold serial dilution method
# Type: functional
endpointLabel: MIC
Remember to quote the unit after the number.

In: Need MIC of O=C(N[C@H](CO)[C@H](O)c1ccc([N+](=O)[O-])cc1)C(Cl)Cl , thanks.
Out: 128 µg/mL

In: How about NCC[C@H](O)C(=O)N[C@@H]1C[C@H](N)[C@@H](O[C@H]2O[C@H](CN)[C@@H](O)[C@H](O)[C@H]2O)[C@H](O)[C@H]1O[C@H]1O[C@H](CO)[C@@H](O)[C@H](N)[C@H]1O ?
Out: 1 µg/mL

In: Now the same for O=C(O)c1cn(C2CC2)c2cc(N3CCNCC3)c(F)cc2c1=O
Out: 1 µg/mL

In: Another molecule to look at: CC1(C)S[C@@H]2[C@H](NC(=O)[C@H](C(=O)O)c3ccsc3)C(=O)N2[C@H]1C(=O)O
Out: 8 µg/mL

In: C[C@@H](O)[C@H]1C(=O)N2C(C(=O)O)=C(SCCNC=N)C[C@H]12 [IMIPENEM ANHYDROUS] , same question.
Out: 2 µg/mL

In: Input C[C@H]1[C@H](NC(=O)/C(=N\OC(C)(C)C(=O)O)c2csc(N)n2)C(=O)N1S(=O)(=O)O
Out: 1 µg/mL

In: What do you get for NC[C@H]1O[C@H](O[C@H]2[C@H](O)[C@@H](O[C@H]3O[C@H](CO)[C@@H](O)[C@H](N)[C@H]3O)[C@H](N)C[C@@H]2N)[C@H](N)C[C@@H]1O ?
Out: 0.25 µg/mL

In: Same question, CO/N=C(\C(=O)N[C@@H]1C(=O)N2C(C(=O)[O-])=C(C[N+]3(C)CCCC3)CS[C@H]12)c1csc(N)n1 this time
Out: 2 µg/mL

Data provenance is ChEMBL document CHEMBL1275455.
